# System: wild-type progesterone receptor (pSG5-Gal4-DBD-PR) and its mutants
# Type: cell-based
# runConditions: HeLa, Gal4-DBD-PR LBD mutants; ligand 10 μM
attributeMeasured: activity in PR mutants as compared to wild-type PR, high ligand concentration

I have this compound here, C[C@]12CCC(=O)C=C1CC[C@@H]1[C@@H]2[C@@H](O)C[C@@]2(C)[C@H]1CC[C@]2(O)C(=O)CO [HCY, Cortisol] , and I need its recorded activity in PR mutants as compared to wild-type PR, high ligand concentration.
reduced activity

And for C[C@]12CCC(=O)C=C1CC[C@@H]1[C@@H]2[C@@H](O)C[C@]2(C=O)[C@@H](C(=O)CO)CC[C@@H]12 [AS4, Aldosterone] ?
reduced activity

And for C[C@]12CCC(=O)C[C@@H]1CC[C@@H]1[C@@H]2CC[C@]2(C)[C@@H](O)CC[C@@H]12 [DHT, Dihydrotestosterone] ?
reduced activity
